# experiment_summary: Half life in Wistar rat at 2 mg/kg, iv measured for 24 hrs by LC-MS/MS analysis
# Format: ADME, organism-based
# assay_setup: in vivo
attribute_measured: half-life (h)
One number for each entry, in h.

Ask: Quickly give me recorded half-life for `COc1cc(NC(C)=O)cc(Oc2ccnc3ccc(OC)cc23)c1`
Reply: 1.09

###

# experiment_summary: Apparent volume of distribution in Wistar rat at 2 mg/kg, iv measured after 24 hrs by LC-MS/MS analysis
# Assay type: ADME, organism-based
# assay_setup: in vivo, read-out: Vz
attribute_measured: Vd (L/kg)
Numbers only, in L/kg.

Ask: Quickly give me recorded Vd for `COc1cc(NC(C)=O)cc(Oc2ccnc3ccc(OC)cc23)c1`
Reply: 2.78

###

# System: HeLa
# experiment_summary: Cytotoxicity against human HeLa cells assessed as cell growth inhibition incubated for 3 days by MTT assay
# Assay type: functional, cell-based
# assay_setup: time 3.0 day
Active and inactive are the calls of the source. The calls are words filed in the database; no cut-off is given here.
attribute_measured: Activity

COc1cc(Oc2ccnc3ccc(OC)cc23)cc(-n2cccn2)c1	Active
COc1cc(Oc2ccnc3cc(OC)c(OC)cc23)cc(-n2cccn2)c1	Active
COc1cc(NC(C)=O)cc(Oc2ccnc3ccc(OC)cc23)c1	Active
COc1cc(NC(C)=O)cc(Oc2ccnc3ccc(F)cc23)c1	Active

###

# tgt: Aurora kinase B (Homo sapiens) (UniProt Q96GD4)
# Sequence (Q96GD4 whole entry): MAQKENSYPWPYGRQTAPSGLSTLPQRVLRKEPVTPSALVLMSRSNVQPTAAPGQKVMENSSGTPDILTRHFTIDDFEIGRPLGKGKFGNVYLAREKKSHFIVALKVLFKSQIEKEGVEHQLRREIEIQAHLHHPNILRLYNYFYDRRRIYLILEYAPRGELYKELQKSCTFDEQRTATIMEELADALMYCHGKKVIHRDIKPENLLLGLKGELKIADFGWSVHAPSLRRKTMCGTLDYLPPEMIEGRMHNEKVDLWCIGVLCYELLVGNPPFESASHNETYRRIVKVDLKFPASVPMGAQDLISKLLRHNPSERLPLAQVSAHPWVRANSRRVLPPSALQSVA
# experiment_summary: Disruption of mitotic localization of AURKB in human RPE-MYC H2B-GFP cells assessed as induction of polyploidy by fluorescence high content cell imaging analysis
# Assay type: cell-based
attribute_measured: MEC (µM)
Give bare numbers, in µM.

Known results for compounds:
COc1cc(Oc2ccnc3cc(Cl)ccc23)cc(-n2cccn2)c1	20
Nc1ccc(Oc2ccnc3ccccc23)cc1	10
COc1cc(NC(C)=O)cc(Oc2ccnc3ccc(F)cc23)c1	0.01
COC(=O)c1ccc(Oc2ccnc3ccccc23)cc1	40

# map each compound to its MEC
1. COc1cc(Oc2ccnc3ccccc23)cc(-n2cccn2)c1
2. COC(=O)c1ccc(OC)c(Oc2ccnc3ccccc23)c1
3. COC(=O)c1cc2c(Oc3cc(OC)cc(-n4cccn4)c3)ccnc2cc1OC
4. COc1cc(Oc2ccnc3ccc(OC)cc23)cc(-n2cccn2)c1

Reply:
1. 0.078
2. 0.625
3. 0.078
4. 0.012

# map each compound to its MEC
1. COc1cc(Oc2ccnc3ccccc23)cc(-c2nc(C)no2)c1
2. CC(=O)c1cccc(Oc2ccnc3ccccc23)c1
3. COc1cccc(Oc2ccnc3ccccc23)c1

Reply:
[0.625, 10, 5]

# map each compound to its MEC
1. COc1cc(NC(C)=O)cc(Oc2ccnc3ccc(OC)cc23)c1
2. COC(=O)c1cccc(Oc2ccnc3ccccc23)c1
3. COc1cc(Oc2ccnc3ccc(F)cc23)cc(-n2cccn2)c1
4. COC(=O)c1cc(OC)cc(Oc2ccnc3ccccc23)c1

Reply:
0.01
10
0.052
0.02

# map each compound to its MEC
1. Nc1cccc(Oc2ccnc3ccccc23)c1
2. COc1cc(Oc2ccnc3ccccc23)cc(C(F)(F)F)c1
3. COc1cc(NC(C)=O)cc(Oc2ccnc3cc(OC)c(C(N)=O)cc23)c1

Reply:
[40, 1.25, 0.625]

###

# tgt: UniProt Q96GD4
# experiment_summary: Disruption of mitotic localization of AURKB in human RPE-MYC cells expressing BCL2 assessed as disruption of PLK1 localization at spindle mid-zone at 40 nM measured after 6 hrs by immunofluorescence staining analysis
# Type: cell-based
Activity calls are given as the source filed them. The rule behind the calls is not given here.
attribute_measured: Activity

COc1cc(NC(C)=O)cc(Oc2ccnc3ccc(F)cc23)c1	Active
COc1cc(NC(C)=O)cc(Oc2ccnc3ccc(OC)cc23)c1	Active
COc1cc(Oc2ccnc3cc(OC)c(OC)cc23)cc(-n2cccn2)c1	Active
COc1cc(Oc2ccnc3ccc(OC)cc23)cc(-n2cccn2)c1	Active

###

# tgt: Aurora kinase B (Homo sapiens) (UniProt Q96GD4)
# experiment_summary: Disruption of mitotic localization of AURKB in human RPE-MYC H2B-GFP cells assessed as induction of polyploidy by fluorescence high content cell imaging analysis
# Type: cell-based
attribute_measured: MEC (µM)
Numbers only, in µM.

Known results for molecules:
CCOC(=O)c1cccc(Oc2ccnc3ccccc23)c1	10
COc1cc(NC(C)=O)cc(Oc2ccnc3cc(OC)c(OC)cc23)c1	0.078
COc1cc(OC)cc(Oc2ccnc3ccccc23)c1	0.078

# map each molecule to its MEC
1. COC(=O)c1cc2c(Oc3cc(NC(C)=O)cc(OC)c3)ccnc2cc1OC
2. COc1cc(Oc2ccnc3cc(OC)ccc23)cc(-n2cccn2)c1

Reply:
1: 1.25; 2: 5

###

# experiment_summary: Tmax in Wistar rat at 20 mg/kg, po measured for 24 hrs by LC-MS/MS analysis
# Assay type: ADME, organism-based
# assay_setup: in vivo
attribute_measured: Tmax (min)
One number for each entry, in min.

Ask: Quickly give me recorded Tmax for `COc1cc(NC(C)=O)cc(Oc2ccnc3ccc(OC)cc23)c1`
Reply: 30

###

# experiment_summary: Drug degradation in HCl buffer at pH 2.2 measured after 72 hrs by LC-MS analysis
# Assay type: physicochemical
# assay_setup: read-out: Drug degradation
attribute_measured: degraded at 72 h

Ask: Quickly give me recorded degraded at 72 h for `COc1cc(NC(C)=O)cc(Oc2ccnc3ccc(OC)cc23)c1`
Reply: 0%

###

# tgt: Aurora kinase B (Homo sapiens)
# experiment_summary: Disruption of mitotic localization of AURKB in human RPE-MYC H2B-GFP cells assessed as induction of mitotic arrest measured after 24 hrs by fluorescence high content cell imaging analysis
# Assay type: cell-based
attribute_measured: MEC (µM)
Answers are plain numbers, in µM.

COc1cc(Oc2ccnc3ccccc23)cc(-c2nc(C)no2)c1	0.625
COc1cc(Oc2ccnc3cc(OC)c(OC)cc23)cc(-n2cccn2)c1	0.012
COc1cc(NC(C)=O)cc(Oc2ccnc3cc(OC)c(OC)cc23)c1	0.039
COC(=O)c1cc(OC)cc(Oc2ccnc3ccccc23)c1	0.02
COC(=O)c1cccc(Oc2ccnc3ccccc23)c1	10
COc1cc(Oc2ccnc3ccc(F)cc23)cc(-n2cccn2)c1	0.052
COc1cc(Oc2ccnc3ccccc23)cc(C(F)(F)F)c1	1.25
COc1cccc(Oc2ccnc3ccccc23)c1	5

Here is another compound to look at.
Ask: Quickly give me recorded MEC for `CCOC(=O)c1cccc(Oc2ccnc3ccccc23)c1`
Reply: 10

###

# experiment_summary: Drug degradation in PBS buffer at pH 7.4 measured after 72 hrs by LC-MS analysis
# Format: physicochemical
# assay_setup: read-out: Drug degradation
attribute_measured: degraded at 72 h (%)
Answers are plain numbers, in %.

Ask: Quickly give me recorded degraded at 72 h for `COc1cc(NC(C)=O)cc(Oc2ccnc3ccc(OC)cc23)c1`
Reply: 0

###

# experiment_summary: Half life in Wistar rat at 20 mg/kg, po measured for 24 hrs by LC-MS/MS analysis
# Assay type: ADME, organism-based
# assay_setup: in vivo
attribute_measured: half-life (min)
Give bare numbers, in min.

Ask: Quickly give me recorded half-life for `COc1cc(NC(C)=O)cc(Oc2ccnc3ccc(OC)cc23)c1`
Reply: 196

###

# experiment_summary: Oral bioavailability in Wistar rat at 20 mg/kg measured for 24 hrs by LC-MS/MS analysis
# Assay type: ADME, organism-based
# assay_setup: in vivo
attribute_measured: bioavailability
Quick note: unit goes after the number.

Ask: Quickly give me recorded bioavailability for `COc1cc(NC(C)=O)cc(Oc2ccnc3ccc(OC)cc23)c1`
Reply: 27.6%

###

# experiment_summary: Clearance in Wistar rat at 2 mg/kg, iv measured after 24 hrs by LC-MS/MS analysis
# Type: ADME, organism-based
# assay_setup: in vivo
attribute_measured: clearance (mL/min/kg)
One number for each entry, in mL/min/kg.

Ask: Quickly give me recorded clearance for `COc1cc(NC(C)=O)cc(Oc2ccnc3ccc(OC)cc23)c1`
Reply: 29.3

###

I'd be grateful if you could share measured log10 of MEC for these entries.
# tgt: UniProt:Q96GD4
# experiment_summary: Disruption of mitotic localization of AURKB in human RPE-MYC H2B-GFP cells assessed as induction of mitotic arrest measured after 24 hrs by fluorescence high content cell imaging analysis
# Assay type: cell-based
// do not treat as linear: log10 of MEC, unit µM

Known results for molecules:
COc1cc(NC(C)=O)cc(Oc2ccnc3ccc(F)cc23)c1	-2.00
Nc1ccc(Oc2ccnc3ccccc23)cc1	1.00
COc1cc(NC(C)=O)cc(Oc2ccnc3cc(OC)c(C(N)=O)cc23)c1	-0.20
COc1cc(Oc2ccnc3ccccc23)cc(-n2cccn2)c1	-1.11
COc1cc(NC(C)=O)cc(Oc2ccnc3ccccc23)c1	-1.11
COC(=O)c1cc2c(Oc3cc(OC)cc(-n4cccn4)c3)ccnc2cc1OC	-1.41

Here is another molecule to look at.
Ask: Quickly give me recorded log10 of MEC for `Nc1cccc(Oc2ccnc3ccccc23)c1`
Reply: 1.60

From: ChEMBL document CHEMBL5241130
